meta.source: the supplement of paper PMC6555819

Measured PBM binding z-score, listed per entry.
- Tested on: FXR:RXRa (NR concentration 270 nM, RXRa partner concentration 90 nM)
- method.notes: PBM binding z-score (relative to random genomic background probes); higher = stronger binding; sequences stand for … in GC…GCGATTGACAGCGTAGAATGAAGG

{"columns": ["sequence.string", "PBM binding z-score"],
 "data": [
  ["ATCGAAAGGTCGACGAGGTGACTATACACCGTTT", 4.76],
  ["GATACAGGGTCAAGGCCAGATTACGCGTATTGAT", 7.02],
  ["CCGACTGGGGTAAGGTTACCATAACGCACAGCCA", 0.62],
  ["ATCGAAAGGGCGACGAGGTGAGTATACACCGTTT", 0.314],
  ["CAAACTAGGTCACAGAGGTCACAGTCCGTGCGTA", 6.73],
  ["CCACGGAGGACAGAAGGTCAGAGCTGTCCGCTTT", 1.39],
  ["GCAATTAGTTGAAAGGGCAACCGAATGATTCTCG", 0.0908],
  ["CCTAGCAGGCCAATCTGGGTGACTCAAGGCTTGA", -0.438],
  ["AGTCAAAGCTCAGGACGAGGTAACGTAAAGCACG", -0.244],
  ["ATTCAAAGTTCACTAGGTAACGTAAGATTCAGCT", 4.73],
  ["CCTACTGGGCCATTCAGAGGTCATTAATCATATG", 2.24],
  ["CCTAACAGGCCAATCTGGGTCACTCAAGGCTTGA", 1.06]
]}

---

- Tested on: RARg:RXRa (NR concentration 270 nM, RXRa partner concentration 90 nM)
- method.notes: PBM binding z-score (relative to random genomic background probes); higher = stronger binding; sequences stand for … in GC…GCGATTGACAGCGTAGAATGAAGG

{"columns": ["sequence.string", "target.under.test", "PBM binding z-score"],
 "data": [
  ["CCGAGTAGGTTATGTGGCATTCAGGCAACGGTGA", "RARg:RXRa (NR concentration 270 nM, RXRa partner concentration 90 nM)", 0.273],
  ["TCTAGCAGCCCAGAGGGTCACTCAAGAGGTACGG", "RARg:RXRa (NR concentration 270 nM, RXRa partner concentration 90 nM)", 2.16],
  ["TCATATAGGTAAAAGATGAAAGTCGGTGTGGTAA", "RARg:RXRa (NR concentration 270 nM, RXRa partner concentration 90 nM)", 0.301],
  ["TCTCGGAGGGCACGAAGGTCAGAGCTTTCCAGAG", "RARg:RXRa (NR concentration 270 nM, RXRa partner concentration 90 nM)", 4.11],
  ["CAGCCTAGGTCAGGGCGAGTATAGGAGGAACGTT", "RARg:RXRa (NR concentration 270 nM, RXRa partner concentration 90 nM)", 3.08],
  ["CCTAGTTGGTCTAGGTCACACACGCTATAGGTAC", "RARg:RXRa (NR concentration 270 nM, RXRa partner concentration 90 nM)", 2.36]
]}

---

- Test system: RARa:RXR (NR concentration 270 nM, RXRa partner concentration 90 nM)
- method.notes: PBM binding z-score (relative to random genomic background probes); higher = stronger binding; sequences stand for … in GC…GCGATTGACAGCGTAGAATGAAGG

{"columns": ["sequence.string", "target.under.test", "PBM binding z-score"],
 "data": [
  ["ATCTCTAGGTAAGACTCAGGTCAGTGAAGAACGC", "RARa:RXR (NR concentration 270 nM, RXRa partner concentration 90 nM)", 0.911],
  ["TCTTGTTGATCAGCAGGTTAAGAAAGCTGGCCAA", "RARa:RXR (NR concentration 270 nM, RXRa partner concentration 90 nM)", 0.447],
  ["CAGCCTAGGTCTGGGCCAGTATAGGAGGAACGTT", "RARa:RXR (NR concentration 270 nM, RXRa partner concentration 90 nM)", -0.724],
  ["CCAACTGGGGCAAGGTTACCATAACGCACAGCCA", "RARa:RXR (NR concentration 270 nM, RXRa partner concentration 90 nM)", 0.879],
  ["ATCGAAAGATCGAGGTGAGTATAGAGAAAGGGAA", "RARa:RXR (NR concentration 270 nM, RXRa partner concentration 90 nM)", 0.139],
  ["GTACCCAGGTGAATAGGTCGTTGATGAGTAGGCG", "RARa:RXR (NR concentration 270 nM, RXRa partner concentration 90 nM)", 1.08],
  ["GCTTGTAGATCAAGGTTAAAAAAGACTAAGCTAA", "RARa:RXR (NR concentration 270 nM, RXRa partner concentration 90 nM)", 1.15],
  ["GCGTACGGGTCAAAGGTTATAGCATGAATAGAAT", "RARa:RXR (NR concentration 270 nM, RXRa partner concentration 90 nM)", 8.62],
  ["ATCTCAAGGTAAGACTCAGTTCAGTGAAGAACGC", "RARa:RXR (NR concentration 270 nM, RXRa partner concentration 90 nM)", 0.694],
  ["CATACAGCGTCAGCTAGGCCAGAGTAGGGACGGC", "RARa:RXR (NR concentration 270 nM, RXRa partner concentration 90 nM)", -0.799],
  ["CCTAGCAAGCCAATCTGGGTCACTCAAGGCTTGA", "RARa:RXR (NR concentration 270 nM, RXRa partner concentration 90 nM)", 1.69],
  ["CCTGCTAGGTCATGGTCCGCTAATCTACAGTATG", "RARa:RXR (NR concentration 270 nM, RXRa partner concentration 90 nM)", 2.09],
  ["TCTAGCAGGCCAAAGGGTCACTCAAGAGGTACGG", "RARa:RXR (NR concentration 270 nM, RXRa partner concentration 90 nM)", 3.89],
  ["AGAACGAGGGCAATGAGTTAATAGCACGGGTGGC", "RARa:RXR (NR concentration 270 nM, RXRa partner concentration 90 nM)", 0.239],
  ["TCTCGGAGTACACGAAAGGTCAGAGCTCGACATC", "RARa:RXR (NR concentration 270 nM, RXRa partner concentration 90 nM)", 4.04],
  ["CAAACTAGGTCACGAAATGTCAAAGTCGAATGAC", "RARa:RXR (NR concentration 270 nM, RXRa partner concentration 90 nM)", 3.64],
  ["AGTCAAAGTTCATCCAGGTAACGTAAGATATGCT", "RARa:RXR (NR concentration 270 nM, RXRa partner concentration 90 nM)", 3.69],
  ["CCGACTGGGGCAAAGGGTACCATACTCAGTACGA", "RARa:RXR (NR concentration 270 nM, RXRa partner concentration 90 nM)", 0.544],
  ["GGAACGAGGGCAAGATGATAGCAGAGTTTGATGG", "RARa:RXR (NR concentration 270 nM, RXRa partner concentration 90 nM)", 0.145],
  ["CCTTACGGGTCGAGGTTATAGCACGGGTGGTACG", "RARa:RXR (NR concentration 270 nM, RXRa partner concentration 90 nM)", 1.61],
  ["GCGACTGGGGTATCAGCAGGTTACCATAACTTAA", "RARa:RXR (NR concentration 270 nM, RXRa partner concentration 90 nM)", 0.3],
  ["TCTTGTAGAGCAACAGGAGGTTAAGAAAGATCGA", "RARa:RXR (NR concentration 270 nM, RXRa partner concentration 90 nM)", 0.506],
  ["TATACAGCGTCAAAGGCCAGAGTACGAATGTCGA", "RARa:RXR (NR concentration 270 nM, RXRa partner concentration 90 nM)", -0.513],
  ["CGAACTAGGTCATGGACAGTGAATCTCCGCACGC", "RARa:RXR (NR concentration 270 nM, RXRa partner concentration 90 nM)", 2.43],
  ["CCTTGTTGGTCAGGAGGTCACACACCGGATATGA", "RARa:RXR (NR concentration 270 nM, RXRa partner concentration 90 nM)", 4.37],
  ["TAGCTTAGGTCATGGGCCAGTATACCACGCGAAC", "RARa:RXR (NR concentration 270 nM, RXRa partner concentration 90 nM)", 2.69]
]}

---

- Tested on: VDR homodimer (NR concentration 270 nM)
- method.notes: PBM binding z-score (relative to random genomic background probes); higher = stronger binding; sequences stand for … in GC…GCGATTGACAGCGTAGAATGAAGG

{"columns": ["sequence.string", "PBM binding z-score"],
 "data": [
  ["CCTAGCAGGCCAAGCTGGGTCACTCAAGGCTTGA", -0.334],
  ["AGTCAAAGTTCATCTAGTTAACGTAAGATATGCT", 5.21],
  ["TCTATTAGTTTATTAGGGCAACCGAAACAGCGGA", 1.29],
  ["CCTGCTAGGTCAATAGTCAGCTAAAGCAGCTCGC", -0.379],
  ["TAGCCTAGGTCATGGGCCGGTATACCACGCGAAC", 0.45],
  ["TTACCAACGTGAAAGGTCGTTGATGCACGCCTTG", 1.13],
  ["CCTTACGGGTCACGAGGTTAGAGCACGACGAGCG", 1.84],
  ["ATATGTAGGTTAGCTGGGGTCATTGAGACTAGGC", 5.12],
  ["CCTACTGGGCCAAAAAAGTCATTGATGCCGATAA", -0.687],
  ["CATACAGGGTCAGCGAGGCCAGAGTAGGGACGGC", 2.49],
  ["TCTTGTAGATCAAGCAGGTTAAGGAAGCCTGAGT", 0.166],
  ["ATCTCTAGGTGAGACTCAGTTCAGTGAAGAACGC", 0.761],
  ["GCTGACAGGTGAAACGCAGGTAACTCAGGGTGGC", -0.647],
  ["CGTCCAAGGTCAATGGTCAGTGAAGAGATGACGG", 2.25],
  ["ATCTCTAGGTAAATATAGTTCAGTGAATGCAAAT", 1.2],
  ["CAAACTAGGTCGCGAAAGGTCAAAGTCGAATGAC", 3.37],
  ["CGAACGAGGGCATCAGTTGATAGCAAATGCCGAT", 1.48],
  ["ATCGAAAGGTCGGGAGGTGAGTATACAGAAAGGC", 0.718],
  ["CTAACTAGGTCAAAGGTCAAAGTCGAGCCAACCA", 3.19],
  ["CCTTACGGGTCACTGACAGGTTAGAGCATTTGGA", 0.83],
  ["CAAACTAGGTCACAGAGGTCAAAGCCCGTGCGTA", 6.06],
  ["GATACAGGGTCAAGGCCAGAGTCCGCGTATTGAT", 1.73],
  ["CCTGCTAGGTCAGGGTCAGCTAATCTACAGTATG", 1.01],
  ["CGTCCAAGGTCAATGTCAGTGAAAGAGACTCGAA", 2.02],
  ["ATCTCTAGGTAAGGATAGTTCAGTGAATGCAAAT", 0.73],
  ["CCTAGCAGGCCAGTGTCACTCAAGCATTTCGCTT", -0.509]
]}
